# target-of-assay: KIF18a-Microtubule Complex (Homo sapiens (Human))
# Sequence (Q8NI77 whole entry, looked up): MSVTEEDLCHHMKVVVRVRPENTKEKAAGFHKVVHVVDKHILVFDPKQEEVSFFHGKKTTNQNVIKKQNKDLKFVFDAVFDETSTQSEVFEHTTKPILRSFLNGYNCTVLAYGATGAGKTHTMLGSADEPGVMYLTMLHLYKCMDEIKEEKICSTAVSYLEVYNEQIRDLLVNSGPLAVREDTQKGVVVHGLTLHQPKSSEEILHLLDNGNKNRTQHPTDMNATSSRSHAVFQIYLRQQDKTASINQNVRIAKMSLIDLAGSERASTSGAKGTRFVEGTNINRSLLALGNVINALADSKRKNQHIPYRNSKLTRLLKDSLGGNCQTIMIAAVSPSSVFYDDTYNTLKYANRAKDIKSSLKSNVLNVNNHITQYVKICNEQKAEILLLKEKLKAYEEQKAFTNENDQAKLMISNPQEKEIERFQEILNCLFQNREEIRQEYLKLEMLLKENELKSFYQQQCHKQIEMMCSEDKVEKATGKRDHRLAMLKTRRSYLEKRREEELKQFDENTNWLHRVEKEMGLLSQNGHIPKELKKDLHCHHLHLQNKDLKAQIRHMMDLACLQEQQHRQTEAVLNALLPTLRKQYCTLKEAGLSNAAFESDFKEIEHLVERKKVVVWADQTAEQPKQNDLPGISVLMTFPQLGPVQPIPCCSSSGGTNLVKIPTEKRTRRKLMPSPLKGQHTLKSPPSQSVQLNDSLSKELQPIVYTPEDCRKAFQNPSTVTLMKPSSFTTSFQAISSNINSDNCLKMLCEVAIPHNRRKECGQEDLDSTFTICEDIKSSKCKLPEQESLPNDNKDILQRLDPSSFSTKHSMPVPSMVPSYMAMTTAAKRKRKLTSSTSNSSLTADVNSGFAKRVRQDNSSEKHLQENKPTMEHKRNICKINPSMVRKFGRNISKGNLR
# Sequence (Q2XVP4 whole entry partner, looked up): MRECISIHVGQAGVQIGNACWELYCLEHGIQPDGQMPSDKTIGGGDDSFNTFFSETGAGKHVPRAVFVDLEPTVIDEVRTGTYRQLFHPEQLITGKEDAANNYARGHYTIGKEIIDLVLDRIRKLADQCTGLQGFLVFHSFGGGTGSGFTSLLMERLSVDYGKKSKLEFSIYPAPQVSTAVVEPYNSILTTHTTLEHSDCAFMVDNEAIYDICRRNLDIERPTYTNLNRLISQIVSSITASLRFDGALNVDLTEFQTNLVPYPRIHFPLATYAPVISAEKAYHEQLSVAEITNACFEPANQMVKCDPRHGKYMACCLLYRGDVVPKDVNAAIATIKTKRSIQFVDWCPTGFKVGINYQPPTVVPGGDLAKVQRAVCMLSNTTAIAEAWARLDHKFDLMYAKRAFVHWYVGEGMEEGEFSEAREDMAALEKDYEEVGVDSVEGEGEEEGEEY
# Sequence (P02554 whole entry partner, looked up): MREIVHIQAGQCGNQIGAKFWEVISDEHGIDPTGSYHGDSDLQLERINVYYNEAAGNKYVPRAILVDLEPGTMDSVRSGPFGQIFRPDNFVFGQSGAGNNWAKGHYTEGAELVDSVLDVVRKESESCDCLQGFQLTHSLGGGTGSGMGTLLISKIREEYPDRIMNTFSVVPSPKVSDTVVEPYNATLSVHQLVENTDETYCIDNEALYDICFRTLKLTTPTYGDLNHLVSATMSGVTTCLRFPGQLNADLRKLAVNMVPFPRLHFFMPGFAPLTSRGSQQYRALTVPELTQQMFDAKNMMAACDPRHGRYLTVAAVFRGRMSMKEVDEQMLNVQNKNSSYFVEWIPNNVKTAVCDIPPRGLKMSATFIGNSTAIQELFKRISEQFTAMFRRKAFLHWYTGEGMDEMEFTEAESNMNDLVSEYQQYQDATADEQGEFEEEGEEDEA
# experimental-protocol: Binding kinetics to KIF18a-microtubule complex (global progress curve analysis)
# assay-conditions: read-out: KI (determined from binding kinetic assay koff/kon); koff/kon
# Method: Binding Kinetics to KIF18a-Microtubule Complex Compound binding kinetics parameters (kon and koff) were determined by the method of global progress curve analysis (GPCA). […] ADP product levels were determined by the Promega® ADP-Glo assay. […]
value-kind: Ki (nM)
Express your answer in nM, writing the number without its unit.

Qu. GET /values?readout=Ki&item= CS(=O)(=O)Nc1ccc2c(c1)C1(CCC3(CC3)CC1)CN2C(=O)c1cccc([C@@H](O)C2CCCC2)n1 (single isomer, unassigned) [Compound 317a]
Ans. 10

Qu. Let us now turn to CC(C)(C)NS(=O)(=O)c1cc(C(=O)N2CC3(CCC4(CC4)CC3)c3cc(NS(C)(=O)=O)ccc32)ccc1F [Compound 159]
Ans. 0.83

Qu. Item: CC1(NS(=O)(=O)c2cccc(C(=O)N3CC4(CCC5(CC5)CC4)c4cc(NS(C)(=O)=O)ccc43)c2)CCC1 [Compound 182]
Ans. 0.26

Qu. Same lookup for CCS(=O)(=O)Nc1ccc2c(c1)C1(CCC3(CC3)CC1)CN2C(=O)c1cc(S(=O)(=O)NC(C)(C)C)cs1 [Compound 269] , please.
Ans. 4

Qu. Try the compound CS(=O)(=O)Nc1ccc2c(c1)C1(CCC3(CC3)CC1)CN2C(=O)c1cccc(S(=O)(=O)N2CC3(CCC3)C2)c1 [Compound 151]
Ans. 0.12
